Below, each entry is listed alongside its reported Percent Effect.
Target: Aspartate--tRNA(Asp/Asn) ligase (Mycobacterium tuberculosis (strain ATCC 25618 / H37Rv))
Sequence (whole entry): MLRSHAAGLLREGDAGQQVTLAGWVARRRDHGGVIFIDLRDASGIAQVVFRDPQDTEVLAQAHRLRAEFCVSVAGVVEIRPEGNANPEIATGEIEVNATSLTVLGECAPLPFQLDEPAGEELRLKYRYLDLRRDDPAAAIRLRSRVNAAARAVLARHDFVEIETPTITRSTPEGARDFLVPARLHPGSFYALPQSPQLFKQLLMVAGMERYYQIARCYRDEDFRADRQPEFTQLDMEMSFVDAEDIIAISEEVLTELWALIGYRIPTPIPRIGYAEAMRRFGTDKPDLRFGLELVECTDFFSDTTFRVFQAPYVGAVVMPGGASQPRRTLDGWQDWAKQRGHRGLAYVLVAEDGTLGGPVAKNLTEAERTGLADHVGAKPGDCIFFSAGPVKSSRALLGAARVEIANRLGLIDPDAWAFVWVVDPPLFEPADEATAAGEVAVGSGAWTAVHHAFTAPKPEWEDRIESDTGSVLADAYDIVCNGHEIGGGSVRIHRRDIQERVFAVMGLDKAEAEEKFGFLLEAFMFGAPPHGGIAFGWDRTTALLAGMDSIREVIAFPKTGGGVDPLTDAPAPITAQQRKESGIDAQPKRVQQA
Assay: Assay for Asp RNA synthetase-1 from Mycobacterium tuberculosis
Assay type: functional
Design: scale not given: in the data most compounds retested in dose-response had high values
Details: 30 µM
State just the number; it will be interpreted in %.

N#Cc1cccnc1NCCNC(=O)N1CCCSCC1 = 0.546
N#Cc1ccnc(N2CCN(C(=O)Cc3ccc4c(c3)CCO4)CC2)c1 = 0.144
Cc1n[nH]c(C)c1NC(=O)CN1CCn2c(nnc2C(C)C)C1 = 0.173

Query :: Name the recorded Percent Effect for CCS(=O)(=O)N1CCC2(CC(=O)N(c3cccc(C)c3)C2)C1 (centres undefined) .
Result :: 2.82

Query :: Which measured Percent Effect value corresponds to `O=C(c1cscn1)N1CC[C@]2(C[C@@H](OCCN3CCCC3)CO2)C1` ?
Result :: -3.81

Query :: Consider the compound shown here: O=C(c1ccncc1)N1CCC2(CC1)CC(Oc1cccnc1)CO2 (centres undefined) What is its recorded Percent Effect?
Result :: 4.1

Query :: Please look up its Percent Effect: NC(=O)C(CNC(=O)Cc1ccc(F)cc1)Cc1ccc(F)cc1 (centres undefined)
Result :: -1.56

Query :: Sample `Cc1ccc2c(n1)N(C)CCN(C(=O)C1CC1)C2` — what was its Percent Effect?
Result :: 9.78

Query :: Form field: reported Percent Effect of `Cc1noc(NC(=O)c2ccc(C)c(F)c2)n1`
Result :: -11.1

Query :: What does the record list as Percent Effect for `Cc1nccc(-c2cccc(NCC(=O)N3CCNC3=O)c2)n1` ?
Result :: 2.42

Query :: Param item = `CC(C)c1ccc(O)c(C(=O)N2CCN(Cc3cscn3)CC2)c1` ; retrieve measured Percent Effect.
Result :: -0.175

Query :: I would be grateful if you could share the reported Percent Effect for `CC(C)c1nnc2n1CCN(C(=O)c1ccc(-n3cnnc3)cc1)C2` .
Result :: -3.86
